Target: human somatostatin receptor subtype 2 (Homo sapiens, UniProt P30874)
Construct: expressed in transfected cells
Sequence (P30874 whole entry): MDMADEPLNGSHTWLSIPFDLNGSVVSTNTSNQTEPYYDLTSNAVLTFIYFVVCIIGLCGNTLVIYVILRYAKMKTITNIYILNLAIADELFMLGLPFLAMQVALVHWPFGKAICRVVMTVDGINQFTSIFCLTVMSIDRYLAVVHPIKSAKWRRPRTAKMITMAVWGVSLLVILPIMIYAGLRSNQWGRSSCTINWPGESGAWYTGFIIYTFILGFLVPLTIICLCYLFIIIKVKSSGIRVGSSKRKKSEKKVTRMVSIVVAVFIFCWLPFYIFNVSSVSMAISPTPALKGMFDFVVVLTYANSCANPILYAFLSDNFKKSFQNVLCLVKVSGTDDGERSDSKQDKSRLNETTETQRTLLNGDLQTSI
Assay: Functional assay for SSTR2 agonists (HTRF cAMP)
Type: cell-based
Settings: CHO-K1 cells stably expressing human SST2; NKH477-stimulated cAMP; 20 min at 37 C; read-out: hSST2 cAMP Avg EC50
pEC50: −log10 of the molar value.

| smiles_entry | pEC50 |
| --- | --- |
| CC[C@H](C)[C@@H]([C@@H](CC(=O)N1CCC[C@H]1[C@H](OC)[C@@H](C)C(=O)N[C@H](C)[C@@H](O)c1ccccc1)OC)N(C)C(=O)[C@@H](NC(=O)[C@H](C(C)C)N(C)C(=O)OCc1ccc(NC(=O)[C@H](CCCNC(N)=O)NC(=O)[C@@H](NC(=O)[C@H](Cc2c[nH]cn2)NC(=O)CCOCCC(=O)NCCNc2ncc(-c3cc(C)cc(F)c3)c(N3CCC(N)CC3)c2-c2nc3ccc(Cl)cc3[nH]2)C(C)C)c(O[C@@H]2C[C@H](C(=O)NCC(=O)O)[C@@H](O)[C@H](O)[C@H]2O)c1)C(C)C | 10.06 |

----------
Molecular target: human somatostatin receptor subtype 2 (Homo sapiens, UniProt P30874)
Construct: expressed in transfected cells
Test: Functional assay for SSTR2 agonists (HTRF cAMP)
Assay type: cell-based
Settings: CHO-K1 cells stably expressing human SST2; NKH477-stimulated cAMP; 20 min at 37 C; read-out: hSST2 cAMP Avg EC50
pEC50: −log10 of the molar value.

| molecule | pEC50 |
| --- | --- |
| CC[C@H](C)[C@@H]([C@@H](CC(=O)N1CCC[C@H]1[C@H](OC)[C@@H](C)C(=O)N[C@H](C)[C@@H](O)c1ccccc1)OC)N(C)C(=O)[C@@H](NC(=O)[C@H](C(C)C)N(C)C(=O)OCc1ccc(NC(=O)[C@H](CCCNC(N)=O)NC(=O)[C@@H](NC(=O)c2cc(NCCOCCC(=O)NCCNc3ncc(-c4cc(C)cc(F)c4)c(N4CCC(N)CC4)c3-c3nc4ccc(Cl)cc4[nH]3)cc(C(=O)NCC(=O)S(N)(=O)=O)c2)C(C)C)cc1)C(C)C [Compound 188] | 9.47 |
| CC[C@H](C)[C@@H]([C@@H](CC(=O)N1CCC[C@H]1[C@H](OC)[C@@H](C)C(=O)N[C@H](C)[C@@H](O)c1ccccc1)OC)N(C)C(=O)[C@@H](NC(=O)[C@H](C(C)C)N(C)C(=O)OCc1ccc(NC(=O)[C@H](CCCNC(N)=O)NC(=O)[C@@H](NC(=O)[C@H](CCC(N)=O)NC(=O)CCOCCOCCOCCOCCC(=O)NCCNc2ncc(-c3cc(C)cc(F)c3)c(N3CCC(N)CC3)c2-c2nc3ccc(Cl)cc3[nH]2)C(C)C)c(OCCN)c1)C(C)C [Compound 26] | 9.52 |

----------
Target: human somatostatin receptor subtype 2 (Homo sapiens)
Construct: expressed in transfected cells
Assay: Functional assay for SSTR2 agonists (HTRF cAMP)
Format: cell-based
Settings: CHO-K1 cells stably expressing human SST2; NKH477-stimulated cAMP; 20 min at 37 C; read-out: hSST2 cAMP Avg EC50
Measured log10 EC50 of individual entries
reported_property: log10 EC50 (log10 of the value in nM)

| compound | target_system | log10 EC50 |
| --- | --- | --- |
| CC[C@H](C)[C@@H]([C@@H](CC(=O)N1CCC[C@H]1[C@H](OC)[C@@H](C)C(=O)N[C@H](C)[C@@H](O)c1ccccc1)OC)N(C)C(=O)[C@@H](NC(=O)[C@H](C(C)C)N(C)C(=O)OCc1ccc(NC(=O)[C@H](C)NC(=O)[C@@H](NC(=O)CCOCCC(=O)NCCNc2ncc(-c3cncc(C)c3)c(N3CCC(N)CC3)c2-c2nc3ccc(Cl)cc3[nH]2)C(C)C)c(O[C@@H]2O[C@H](C(=O)O)[C@@H](O)[C@H](O)[C@H]2O)c1)C(C)C [Compound 129] | human somatostatin receptor subtype 2 (Homo sapiens) | 2.28 |
| CC[C@H](C)[C@@H]([C@@H](CC(=O)N1CCC[C@H]1[C@H](OC)[C@@H](C)C(=O)N[C@H](C)[C@@H](O)c1ccccc1)OC)N(C)C(=O)[C@@H](NC(=O)C(C(C)C)N(C)C(=O)OCc1ccc(NC(=O)[C@H](CCCNC(N)=O)NC(=O)[C@@H](NC(=O)CCOCCC(=O)NCCNc2ncc(-c3cc(C)cc(F)c3)c(N3CCC(N)CC3)c2-c2nc3ccc(Cl)cc3[nH]2)C(C)C)c(O[C@@H]2O[C@H](C(=O)N3CCN(C)CC3)[C@@H](O)[C@H](O)[C@H]2O)c1)C(C)C (stereo partly drawn) [Compound 226] | human somatostatin receptor subtype 2 (Homo sapiens) | -0.55 |
| CC[C@H](C)[C@@H]([C@@H](CC(=O)N1CCC[C@H]1[C@H](OC)[C@@H](C)C(=O)N[C@H](C)[C@@H](O)c1ccccc1)OC)N(C)C(=O)[C@@H](NC(=O)[C@H](C(C)C)N(C)C(=O)OCc1ccc(NC(=O)[C@H](C)NC(=O)[C@@H](NC(=O)CCOCCC(=O)NCCNc2ncc(-c3cc(C)cc(F)c3)c(N3CCC(N)CC3)c2-c2nc3cc(F)c(F)cc3[nH]2)C(C)C)c(O[C@@H]2O[C@H](C(=O)O)[C@@H](O)[C@H](O)[C@H]2O)c1)C(C)C [Compound 108] | human somatostatin receptor subtype 2 (Homo sapiens) | -0.74 |
| CC[C@H](C)[C@@H]([C@@H](CC(=O)N1CCC[C@H]1[C@H](OC)[C@@H](C)C(=O)N[C@H](C)[C@@H](O)c1ccccc1)OC)N(C)C(=O)[C@@H](NC(=O)[C@H](C(C)C)N(C)C(=O)OCc1ccc(NC(=O)[C@H](CCCNC(N)=O)NC(=O)[C@@H](NC(=O)[C@H](CCC(=O)O)NC(=O)CCOCCC(=O)NCCNc2ncc(-c3cc(C)cc(F)c3)c(N3CCC(N)CC3)c2-c2nc3ccc(Cl)cc3[nH]2)C(C)C)cc1C(=O)N1CC(N)C1)C(C)C [Compound 91] | human somatostatin receptor subtype 2 (Homo sapiens) | -0.34 |
| CC[C@H](C)[C@@H]([C@@H](CC(=O)N1CCC[C@H]1[C@H](OC)[C@@H](C)C(=O)N[C@H](C)[C@@H](O)c1ccccc1)OC)N(C)C(=O)[C@@H](NC(=O)[C@H](C(C)C)N(C)C(=O)OCc1ccc(NC(=O)[C@H](CCCNC(N)=O)NC(=O)[C@@H](NC(=O)CCOCCOCCOCCOCCC(=O)NCCNc2ncc(-c3cc(C)cc(F)c3)c(N3CCC(N)CC3)c2-c2nc3ccc(Cl)cc3[nH]2)C(C)C)c(OCC(=O)O)c1)C(C)C [Compound 19] | human somatostatin receptor subtype 2 (Homo sapiens) | -1.15 |
| CC[C@H](C)[C@@H]([C@@H](CC(=O)N1CCC[C@H]1[C@H](OC)[C@@H](C)C(=O)N[C@H](C)[C@@H](O)c1ccccc1)OC)N(C)C(=O)[C@@H](NC(=O)[C@H](C(C)C)N(C)C(=O)OCc1ccc(NC(=O)[C@H](CCCNC(N)=O)NC(=O)[C@@H](NC(=O)CCOCCOCCOCCOCCC(=O)NCCNc2ncc(-c3cc(C)cc(F)c3)c(N3CCC(N)CC3)c2-c2nc3ccc(Cl)cc3[nH]2)C(C)C)cc1C(=O)NCC(=O)O)C(C)C [Compound 86] | human somatostatin receptor subtype 2 (Homo sapiens) | -1.17 |
| CC[C@H](C)[C@@H]([C@@H](CC(=O)N1CCC[C@H]1[C@H](OC)[C@@H](C)C(=O)N[C@H](C)[C@@H](O)c1ccccc1)OC)N(C)C(=O)[C@@H](NC(=O)[C@H](C(C)C)N(C)C(=O)OCc1ccc(NC(=O)[C@H](C)NC(=O)[C@@H](NC(=O)CCOCCC(=O)N(C)CC(=O)NCCNc2ncc(-c3cc(C)cc(F)c3)c(N3CCC(N)CC3)c2-c2nc3ccc(Cl)cc3[nH]2)C(C)C)c(O[C@@H]2O[C@H](C(=O)NCCO)[C@@H](O)[C@H](O)[C@H]2O)c1)C(C)C [Compound 206] | human somatostatin receptor subtype 2 (Homo sapiens) | -0.92 |
| CC[C@H](C)[C@@H]([C@@H](CC(=O)N1CCC[C@H]1[C@H](OC)[C@@H](C)C(=O)N[C@H](C)[C@@H](O)c1ccccc1)OC)N(C)C(=O)[C@@H](NC(=O)[C@H](C(C)C)N(C)C(=O)OCc1ccc(NC(=O)[C@H](CCCNC(N)=O)NC(=O)[C@@H](NC(=O)[C@H](CCC(=O)O)NC(=O)CCOCCC(=O)NCCNc2ncc(-c3cc(C)cc(F)c3)c(N3CCC(N)CC3)c2-c2nc3ccc(Cl)cc3[nH]2)C(C)C)cc1C(F)(F)F)C(C)C [Compound 2] | human somatostatin receptor subtype 2 (Homo sapiens) | -0.24 |
| CC[C@H](C)[C@@H]([C@@H](CC(=O)N1CCC[C@H]1[C@H](OC)[C@@H](C)C(=O)N[C@H](C)[C@@H](O)c1ccccc1)OC)N(C)C(=O)[C@@H](NC(=O)[C@H](C(C)C)N(C)C(=O)OCc1ccc(NC(=O)[C@H](CCCNC(N)=O)NC(=O)[C@@H](NC(=O)[C@H](CCC(=O)O)NC(=O)CCOCCC(=O)NCCNc2ncc(-c3cc(C)cc(F)c3)c(N3CCC(N)CC3)c2-c2nc3ccc(Cl)cc3[nH]2)C(C)C)c(OCCN)c1)C(C)C [Compound 1] | human somatostatin receptor subtype 2 (Homo sapiens) | -0.60 |

Just for reference, patent US20260007758A1 is where these values come from.
